tested on: CCRIS mutagenicity, Ames/micronucleus/aberration tests; assay: CCRIS mutagenicity studies; conditions: Test System: AMES SALMONELLA TYPHIMURIUM; Strain/Indicator: TA1537; Metabolic Activation: NONE
Active and inactive are the calls of the source. No rule for the calls is given here.
Possible outcomes: 1 for active, 0 for inactive

[[record]]
compound = "O=[N+]([O-])c1ccc2c3c(ccc([N+](=O)[O-])c13)-c1ccccc1-2"
answer_label = 1

[[record]]
compound = "COC(=O)C(N)Cc1ccc(Cl)cc1 (configuration not stated)"
answer_label = 0

[[record]]
compound = "CC(=O)N(CC(O)CO)c1c(I)c(C(=O)NCCO)c(I)c(C(=O)NCC(O)CO)c1I (configuration not stated)"
answer_label = 0

[[record]]
compound = "Nc1c2ccccc2nc2ccc([N+](=O)[O-])cc12"
answer_label = 1

[[record]]
compound = "Cc1c(C(=O)O)c(O)cc2c1C(=O)c1c(O)c([C@@H]3O[C@H](CO)[C@@H](O)[C@H](O)[C@H]3O)c(O)c(O)c1C2=O"
answer_label = 0

[[record]]
compound = "COc1cccc2c1cc([N+](=O)[O-])c1c(C(=O)O)cc3c(c12)OCO3"
answer_label = 1

[[record]]
compound = "CC(C)NCC(O)c1ccc(NS(C)(=O)=O)cc1 (configuration not stated)"
answer_label = 0


###

tested on: CCRIS mutagenicity, Ames/micronucleus/aberration tests; test: CCRIS mutagenicity studies; conditions: Test System: AMES SALMONELLA TYPHIMURIUM; Strain/Indicator: TA1537; Metabolic Activation: RAT, LIVER, S-9, SODIUM PHENOBARBITAL; Method: STANDARD PLATE
Active and inactive are the calls of the source. The rule behind the calls is not given here.
Result Type: mutagenic call

[[record]]
compound_structure_string = "C=CC(=O)OCCCCCCOC(=O)C=C"
measured_result = "inactive; negative"

[[record]]
compound_structure_string = "C=CC(=O)OCC(C)(C)C"
measured_result = "inactive; negative"

[[record]]
compound_structure_string = "C=CC(=O)OCCOC(=O)C=C"
measured_result = "inactive; negative"

[[record]]
compound_structure_string = "C=CC(=O)OC"
measured_result = "inactive; negative"


###

tested on: CCRIS mutagenicity, Ames/micronucleus/aberration tests; assay: CCRIS mutagenicity studies; conditions: Test System: AMES SALMONELLA TYPHIMURIUM; Strain/Indicator: TA100; Metabolic Activation: RAT, LIVER, S-9, AROCLOR 1254 (10%); Method: PREINCUBATION
Activity calls are given as the source filed them. How the calls were made is not given here.
Possible outcomes: class 1 for active, class 0 for inactive

[[record]]
molecule = "CCCCCCCCCCCC(=O)[O][Sn]([CH2]CCC)([CH2]CCC)[O]C(=O)CCCCCCCCCCC"
answer_label = "class 0"

[[record]]
molecule = "Oc1c(Br)cc(Br)cc1Br"
answer_label = "class 0"

[[record]]
molecule = "N#CC(O)c1ccccc1 (stereo not drawn)"
answer_label = "class 0"

[[record]]
molecule = "O=C1NC(=O)C(c2ccccc2)(c2ccccc2)N1"
answer_label = "class 0"

[[record]]
molecule = "CCCCCCCCCCCCCCCCCC[N+](C)(C)Cc1ccccc1"
answer_label = "class 0"

[[record]]
molecule = "Nc1cc(Cl)c([N+](=O)[O-])cc1O"
answer_label = "class 0"

[[record]]
molecule = "ClCc1ccccc1"
answer_label = "class 0"

[[record]]
molecule = "OCC(O)CCl (stereo not drawn)"
answer_label = "class 1"

[[record]]
molecule = "CCCCCCCC/C=C/CCCCCCCC(=O)OCCOCC(OCCO)C1OCC(OCCO)C1OCCO (stereo not drawn)"
answer_label = "class 0"

[[record]]
molecule = "O=C1c2ccccc2C(=O)c2c(O)cccc21"
answer_label = "class 0"

[[record]]
molecule = "Cc1cc(-c2ccc(N)c(C)c2)ccc1N"
answer_label = "class 0"

[[record]]
molecule = "COC(=O)C(c1ccccc1)C1CCCCN1 (stereo not drawn)"
answer_label = "class 0"

[[record]]
molecule = "O=c1c2[nH]c3ccccc3c2nnn1/N=C/c1ccc(O)cc1"
answer_label = "class 1"

